Overview of recorded melting point for various molecules
reported_property: melting point

> print(dat)
                            molecule.smiles         result
1  Cc1nc(N2C[C@@H](Cc3ccccc3)NC2=O)sc1C(=O)NCc1ccccc1  212 to 214 °C
2  Cc1nc(N2CCN(CC3CCCC3)C2=O)sc1C(=O)NCc1cccnc1  142 to 143 °C
3  Cc1nc(N2CCN(Cc3ccc(OC(F)(F)F)cc3)C2=O)sc1C(=O)NC[C@H](O)c1ccccc1  149 to 151 °C
4    CCOC(=O)c1sc(N2CCN(Cc3ccccc3)C2=O)nc1C  122 to 124 °C
5  Cc1nc(N2CCN(Cc3ccc(F)cc3)C2=O)sc1C(=O)NCc1cccnn1  222 to 225 °C
6  Cc1nc(N2CCN(Cc3ccc(C(F)(F)F)cc3)C2=O)sc1C(=O)NCc1ccccc1  127 to 128 °C
7  Cc1cnc(CNC(=O)c2sc(N3CCN(Cc4ccc(C(F)(F)F)cc4)C3=O)nc2C)cn1  172 to 173 °C
8  Cc1nc(N2CCN(Cc3ccc(C(F)(F)F)cc3)C2=O)sc1CO  153 to 154 °C
